All values here come from patent US20250152719A1.

assay: Mouse pharmacokinetics; type: in vivo, ICR mice; conditions: ICR, mouse, plasma, iv, 1 mg/kg, Mouse i.v. 1 mpk; read-out: AUC
// false strictly below 6000 ng·h/mL in AUC; true otherwise

Here's what some known entries look like.
INSERT INTO assay_data (molecule, classification) VALUES
  ('NC(=O)c1ncc(N2CCCCC2)nc1Nc1ccc(C2CCN(C3Cc4ccc5c(C6CCC(=O)NC6=O)noc5c4C3)CC2)cc1 (stereo not drawn) [Compound 69]', 'true'),
  ('CN1CCN([C@@H]2CCCN(c3cnc(C(N)=O)c(Nc4ccc(N5CCC(CN6CCc7ccc8c(C9CCC(=O)NC9=O)noc8c7CC6)CC5)cc4)n3)C2)C1=O (stereo partly drawn) [Compound 27]', 'false');

Entry NC(=O)c1ncc(N2CCCCC2)nc1Nc1ccc(N2CCC(CN3CCc4ccc5c(C6CCC(=O)NC6=O)noc5c4CC3)CC2)cc1 (stereo not drawn) [Compound 72] : is its AUC no less than 6000 ng·h/mL? false

Given the entry CN1CCN([C@@H]2CCCN(c3cnc(C(N)=O)c(Nc4ccc(C5CCN(CC6CN(c7ccc8c(C9CCC(=O)NC9=O)noc8c7)C6)CC5)cc4)n3)C2)C1=O (stereo partly drawn) [Compound 9] , answer whether its AUC meets or surpasses 6000 ng·h/mL. false

Does the molecule CN1CCN([C@@H]2CCCN(c3cnc(C(N)=O)c(Nc4ccc(C5CCN(CC6Cc7ccc8c(C9CCC(=O)NC9=O)noc8c7C6)CC5)cc4)n3)C2)C1=O (stereo partly drawn) [Compound 89] have recorded AUC that is 6000 ng·h/mL or more? true

###

Target: UniProt Q06187
Sequence (Q06187 whole entry): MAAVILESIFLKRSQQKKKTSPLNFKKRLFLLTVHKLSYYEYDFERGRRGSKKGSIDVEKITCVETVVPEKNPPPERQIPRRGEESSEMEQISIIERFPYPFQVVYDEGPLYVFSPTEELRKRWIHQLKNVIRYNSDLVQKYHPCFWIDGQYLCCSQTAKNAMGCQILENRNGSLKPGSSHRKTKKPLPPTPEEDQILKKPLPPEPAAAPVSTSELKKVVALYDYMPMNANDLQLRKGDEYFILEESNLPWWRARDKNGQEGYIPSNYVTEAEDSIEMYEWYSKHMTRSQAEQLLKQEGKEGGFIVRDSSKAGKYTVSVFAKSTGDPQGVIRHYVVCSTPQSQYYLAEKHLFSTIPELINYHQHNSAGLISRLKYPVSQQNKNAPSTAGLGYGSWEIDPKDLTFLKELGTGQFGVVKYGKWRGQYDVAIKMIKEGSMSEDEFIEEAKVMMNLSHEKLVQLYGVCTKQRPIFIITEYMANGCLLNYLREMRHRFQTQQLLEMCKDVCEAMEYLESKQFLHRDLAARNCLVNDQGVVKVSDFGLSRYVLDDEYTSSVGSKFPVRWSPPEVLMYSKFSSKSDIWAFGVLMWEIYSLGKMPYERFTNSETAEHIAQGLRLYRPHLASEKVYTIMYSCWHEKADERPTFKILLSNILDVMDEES
Assay: BTK degradation in OCI-LY10 cells (Total-BTK HTRF kit)
Type: cell-based
Settings: OCI-Ly10, OCI-LY10 cells, 24 (or 6) h incubation; maximum degradation rate
Description: The detection was carried out using the Total-BTK Kits (cisbio, 63ADK064PEH), and 4× Supplemented Lysis buffer was prepared using the Blocking reagent stock solution (100×) and Lysis buffer stock solution (4×). Premixed antibody solutions were prepared using the Detection buffer, Total-BTK d2 antibody, and Total-BTK Eu Cryptate antibody. […]
The entries below are paired with their reported Dmax.

INSERT INTO measurements (molecule, result) VALUES
  ('CN1CCN([C@@H]2CCCN(c3cnc(C(N)=O)c(Nc4ccc(N5CCC(CN6Cc7cc8onc(C9CCC(=O)NC9=O)c8cc7C6)CC5)cc4)n3)C2)C1=O (stereo partly drawn)', '> 90%'),
  ('CN1CCN([C@@H]2CCCN(c3cnc(C(N)=O)c(Nc4ccc(N5CCC(CN6CCc7ccc8c(C9CCC(=O)NC9=O)noc8c7CC6)CC5)cc4)n3)C2)C1=O (stereo partly drawn)', '97%');

I would be grateful if you could share the reported Dmax for CN1CCN([C@@H]2CCCN(c3cnc(C(N)=O)c(Nc4ccc(N5CCC(CN6Cc7ccc8c(C9CCC(=O)NC9=O)noc8c7C6)CC5)cc4)n3)C2)C1=O (stereo partly drawn) . > 90%

###

Record: IC50 reported on EGFR kinase (Homo sapiens (Human), UniProt P00533).
Sequence (P00533 669-1210): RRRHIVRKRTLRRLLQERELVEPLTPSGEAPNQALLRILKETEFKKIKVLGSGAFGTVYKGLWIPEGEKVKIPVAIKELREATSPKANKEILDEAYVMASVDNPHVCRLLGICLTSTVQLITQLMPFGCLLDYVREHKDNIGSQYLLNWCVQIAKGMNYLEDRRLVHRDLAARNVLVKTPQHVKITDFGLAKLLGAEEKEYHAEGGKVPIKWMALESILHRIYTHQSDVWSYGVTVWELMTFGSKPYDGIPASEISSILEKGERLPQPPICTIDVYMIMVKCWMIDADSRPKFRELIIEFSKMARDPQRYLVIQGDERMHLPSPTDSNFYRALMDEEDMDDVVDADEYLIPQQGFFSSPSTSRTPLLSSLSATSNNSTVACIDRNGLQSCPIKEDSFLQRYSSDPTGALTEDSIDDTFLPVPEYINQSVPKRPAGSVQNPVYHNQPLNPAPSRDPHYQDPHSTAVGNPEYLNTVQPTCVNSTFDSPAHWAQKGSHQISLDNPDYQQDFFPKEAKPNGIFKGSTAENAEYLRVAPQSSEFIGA
Include the unit after the number when you answer.

INSERT INTO measurements (molecule, result) VALUES
  ('CN1CCN([C@@H]2CCCN(c3cnc(C(N)=O)c(Nc4ccc(N5CCC(CN6CCc7ccc8c(C9CCC(=O)NC9=O)noc8c7CC6)CC5)cc4)n3)C2)C1=O (some centres unmarked)', '109 nM');

Kindly consider the entry below.
Please tell me: IC50 of CN1CCN([C@@H]2CCCN(c3cnc(C(N)=O)c(Nc4ccc(C5CCC6(CC5)CC(N5CCc7ccc8c(C9CCC(=O)NC9=O)noc8c7CC5)C6)cc4)n3)C2)C1=O (some centres unmarked) , system EGFR kinase (Homo sapiens (Human), UniProt P00533)? 279 nM

###

pIC50 values by entry
test system: TMD8-BTK(C481S) cells; test: Inhibitory activity on TMD8-BTK(C481S) cell proliferation (CCK-8); format: cell-based; conditions: 72 h, 72 h incubation
# pIC50 is unitless: minus log10 of the molar concentration; print number only

// known answers, use as guide
INSERT INTO assay_data (molecule, number) VALUES
  ('CN1CCN([C@@H]2CCCN(c3cnc(C(N)=O)c(Nc4ccc(C5CC6CCCC(C5)N6C5Cc6ccc7c(C8CCC(=O)NC8=O)noc7c6C5)cc4)n3)C2)C1=O (stereo partly shown) [Compound 79]', 7.92),
  ('NC(=O)c1ncc(N2CCCCC2)nc1Nc1ccc(C2CCN(C[C@@H]3CC[C@@H](n4ccc5c6c(C7CCC(=O)NC7=O)noc6ccc54)C3)CC2)cc1 (stereo partly shown) [Compound 104]', 7.80),
  ('CN1CCN([C@@H]2CCCN(c3cnc(C(N)=O)c(Nc4ccc(C5CCC6(CC5)CC(N5CCc7c(ccc8c(C9CCC(=O)NC9=O)noc78)C5)C6)cc4)n3)C2)C1=O (stereo partly shown) [Compound 58]', 7.68);

Which value of pIC50 has been reported for CN1CCN([C@@H]2CCCN(c3cnc(C(N)=O)c(Nc4ccc(C5CCN(C[C@H]6CCN(c7ccc8onc(C9CCC(=O)NC9=O)c8c7)C6)CC5)cc4)n3)C2)C1=O (stereo partly shown) [Compound 4] in the records? 7.57

###

Assay: Mouse pharmacokinetics
Assay type: in vivo, ICR mice
Conditions: ICR, mouse, plasma, po, 10 mg/kg, Mouse i.g. 10 mpk
Experimental: ICR mice weighing 18-22 g were randomized into groups of 9 after 3-5 days of acclimatization and then intragastrically given the test compound solution at a dose of 10 mg/kg. Plasma samples to be tested were prepared by taking blood from the orbit at time points of 15 min, 30 min, 1 h, 2 h, 3 h, 4 h, 6 h, 8 h, 10 h, and 24 h. 20 μL of each plasma sample to be detected and a standard curve sample were taken, and an acetonitrile solution containing an internal standard was added. […]
Listing of recorded half-life by entry.

INSERT INTO assay_data (compound, result) VALUES
  ('NC(=O)c1ncc(N2CCCCC2)nc1Nc1ccc(N2CCC(CN3CCc4ccc5c(C6CCC(=O)NC6=O)noc5c4CC3)CC2)cc1 (stereo not drawn) [Compound 72]', '4.6 h'),
  ('CN1CCN([C@@H]2CCCN(c3cnc(C(N)=O)c(Nc4ccc(C5CCN(CC6CN(c7ccc8c(C9CCC(=O)NC9=O)noc8c7)C6)CC5)cc4)n3)C2)C1=O (stereo partly drawn) [Compound 9]', '2.6 h'),
  ('NC(=O)c1ncc(N2CCCCC2)nc1Nc1ccc(C2CCN(C3Cc4ccc5c(C6CCC(=O)NC6=O)noc5c4C3)CC2)cc1 (stereo not drawn) [Compound 69]', '7 h'),
  ('CN1CCN([C@@H]2CCCN(c3cnc(C(N)=O)c(Nc4ccc(C5CCN(CC6Cc7ccc8c(C9CCC(=O)NC9=O)noc8c7C6)CC5)cc4)n3)C2)C1=O (stereo partly drawn) [Compound 89]', '3 h'),
  ('CN1CCN([C@@H]2CCCN(c3cnc(C(N)=O)c(Nc4ccc(C5CCN(C6CN(c7ccc8c(C9CCC(=O)NC9=O)noc8c7)C6)CC5)cc4)n3)C2)C1=O (stereo partly drawn) [Compound 10]', '2.9 h');

Let us move to another entry and its half-life.
Which half-life value belongs to CN1CCN([C@@H]2CCCN(c3cnc(C(N)=O)c(Nc4ccc(N5CCC(CN6CCc7ccc8c(C9CCC(=O)NC9=O)noc8c7CC6)CC5)cc4)n3)C2)C1=O (stereo partly drawn) [Compound 27] ? 2.4 h

###

assay: Mouse pharmacokinetics; type: in vivo, ICR mice; settings: ICR, mouse, plasma, iv, 1 mg/kg, Mouse i.v. 1 mpk
attributeMeasured: clearance (mL/min/kg)
Please give a number only; it is taken to be in mL/min/kg.

A selection of reference data follows.
INSERT INTO results (compound, unitstext, number) VALUES
  ('CN1CCN([C@@H]2CCCN(c3cnc(C(N)=O)c(Nc4ccc(C5CCN(C6CN(c7ccc8c(C9CCC(=O)NC9=O)noc8c7)C6)CC5)cc4)n3)C2)C1=O (stereo partly drawn)', 'mL/min/kg', 2.65),
  ('CN1CCN([C@@H]2CCCN(c3cnc(C(N)=O)c(Nc4ccc(C5CCN(CC6CN(c7ccc8c(C9CCC(=O)NC9=O)noc8c7)C6)CC5)cc4)n3)C2)C1=O (stereo partly drawn)', 'mL/min/kg', 5.52);

# context switch: different compound, same clearance
Entry CN1CCN([C@@H]2CCCN(c3cnc(C(N)=O)c(Nc4ccc(N5CCC(CN6CCc7ccc8c(C9CCC(=O)NC9=O)noc8c7CC6)CC5)cc4)n3)C2)C1=O (stereo partly drawn) has what clearance? 9.33

###

target: UniProt Q06187; assay: BTK degradation in OCI-LY10 cells (Total-BTK HTRF kit); type: cell-based; settings: OCI-Ly10, OCI-LY10 cells, 24 (or 6) h incubation; maximum degradation rate
Reported Dmax is given for each of the following compounds.

INSERT INTO measurements (compound, attributemeasured, result) VALUES
  ('NC(=O)c1ncc(N2CCCCC2)nc1Nc1ccc(C2CCN(CC3Cc4ccc5c(C6CCC(=O)NC6=O)noc5c4C3)CC2)cc1 (stereo not shown) [Compound 76]', 'Dmax', '> 90%'),
  ('CN1CCN(C2CCCN(c3cnc(C(N)=O)c(Nc4ccc(C5CCC6(CC5)CN(C5Cc7ccc8c(C9CCC(=O)NC9=O)noc8c7C5)C6)cc4)n3)C2)C1=O (stereo not shown) [Compound 54]', 'Dmax', '> 90%'),
  ('CN1CCN([C@@H]2CCCN(c3cnc(C(N)=O)c(Nc4ccc(C5CCC6(CC5)CCN(CC5Cc7ccc8c(C9CCC(=O)NC9=O)noc8c7C5)CC6)cc4)n3)C2)C1=O (stereo partly shown) [Compound 50]', 'Dmax', '> 90%'),
  ('CN1CCN([C@@H]2CCCN(c3cnc(C(N)=O)c(Nc4ccc(C5CC6CCCC(C5)N6CC5Cc6ccc7c(C8CCC(=O)NC8=O)noc7c6C5)cc4)n3)C2)C1=O (stereo partly shown) [Compound 81]', 'Dmax', '> 90%'),
  ('CN1CCN([C@@H]2CCCN(c3cnc(C(N)=O)c(Nc4ccc(C5CCC6(CC5)CC(N5Cc7ccc8c(C9CCC(=O)NC9=O)noc8c7C5)C6)cc4)n3)C2)C1=O (stereo partly shown) [Compound 56]', 'Dmax', '> 90%'),
  ('NC(=O)c1ncc(N2CCCCC2)nc1Nc1ccc(N2CCC(N3Cc4ccc5c(C6CCC(=O)NC6=O)noc5c4C3)CC2)cc1 (stereo not shown) [Compound 31]', 'Dmax', '> 90%');

State its Dmax on UniProt Q06187: CN1CCN([C@@H]2CCCN(c3cnc(C(N)=O)c(Nc4ccc(C5CCN(C[C@H]6CCC(c7ccc8c(C9CCC(=O)NC9=O)noc8c7)C6)CC5)cc4)n3)C2)C1=O (stereo partly shown) [Compound 6] 99%

Find Dmax (UniProt Q06187) for the entry NC(=O)c1ncc(N2CCCCC2)nc1Nc1ccc(N2CCC(N3CCc4ccc5c(C6CCC(=O)NC6=O)noc5c4CC3)CC2)cc1 (stereo not shown) [Compound 62] > 90%

Can you look up Dmax on UniProt Q06187 for CN1CCN([C@@H]2CCCN(c3cnc(C(N)=O)c(Nc4ccc5c(c4)CCC4(CCN(CC6Cc7ccc8c(C9CCC(=O)NC9=O)noc8c7C6)CC4)O5)n3)C2)C1=O (stereo partly shown) [Compound 77] ? > 90%
